The entries below come with measured MIC Streptococcus pyogenes (GC 4563) values attached.
Tested on: Streptococcus sp.
Experiment: In vitro antibacterial evaluation: minimum inhibitory concentration (MIC), broth dilution method
Format: cell-based
Settings: broth dilution, 5×10^5 CFU/mL, 18 hours at 35° C.
The answer is to be given in µg/mL; state only the numeric part.

# example entries with known answers
[[record]]
compound = "COc1cccc(C2OCC3OC(OC4C(CO)OC(Oc5ccc(CC6NC(=O)C(C(C)c7ccccc7)NC(=O)CNC(=O)C(CO)NC(=O)C(C(O)C7CNC(=N)N7C7OC(CO)C(O)C(O)C7O)NC(=O)C(C(O)C7CNC(=N)N7)NC6=O)cc5)C(O)C4O)C(O)C(O)C3O2)c1 (stereo not shown)"
reported_endpoint = "MIC Streptococcus pyogenes (GC 4563)"
test_result = 0.25

[[record]]
compound = "CC(c1ccccc1)C1NC(=O)CNC(=O)C(CO)NC(=O)C(C(O)C2CNC(=N)N2C2OC(CO)C(O)C(O)C2O)NC(=O)C(C(O)C2CNC(=N)N2)NC(=O)C(Cc2ccc(OC3OC(CO)C(OC4OC5COC(c6cccs6)OC5C(O)C4O)C(O)C3O)cc2)NC1=O (stereo not shown)"
reported_endpoint = "MIC Streptococcus pyogenes (GC 4563)"
test_result = 0.5


Then there is this compound:
Recorded MIC Streptococcus pyogenes (GC 4563) (compound CC(c1ccccc1)C1NC(=O)CNC(=O)C(CO)NC(=O)C(C(O)C2CNC(=N)N2C2OC(CO)C(O)C(O)C2O)NC(=O)C(C(O)C2CNC(=N)N2)NC(=O)C(Cc2ccc(OC3OC(CO)C(OC4OC5COC(c6cccc(O)c6)OC5C(O)C4O)C(O)C3O)cc2)NC1=O (stereo not shown) ): 8

----------
Tested on: Staphylococcus sp.
Assay: In vitro antibacterial evaluation: minimum inhibitory concentration (MIC), broth dilution method
Assay type: cell-based
Details: strain GC 6257
Binarize MIC Coagulase Negative Staphylococcus (GC 6257) at 2 µg/mL; below is yes (1), at or above is no (0).

Sample answers from the record:
[[record]]
compound = "CC(c1ccccc1)C1NC(=O)CNC(=O)C(CO)NC(=O)C(C(O)C2CNC(=N)N2C2OC(CO)C(O)C(O)C2O)NC(=O)C(C(O)C2CNC(=N)N2)NC(=O)C(Cc2ccc(OC3OC(CO)C(OC4OC5COC(c6ccccc6)OC5C(O)C4O)C(O)C3O)c(I)c2)NC1=O (stereo not shown) [Example 196]"
class_name = "no (0)"

[[record]]
compound = "CC(c1ccccc1)C1NC(=O)CNC(=O)C(CO)NC(=O)C(C(O)C2CNC(=N)N2C2OC(CO)C(O)C(O)C2O)NC(=O)C(C(O)C2CNC(=N)N2)NC(=O)C(Cc2ccc(OC3OC(CO)C(OC4OC5COC(C6CC=CCC6)OC5C(O)C4O)C(O)C3O)cc2)NC1=O (stereo not shown) [Example 115]"
class_name = "yes (1)"

[[record]]
compound = "CC(c1ccccc1)C1NC(=O)CNC(=O)C(CO)NC(=O)C(C(O)C2CNC(=N)N2C2OC(CO)C(O)C(O)C2O)NC(=O)C(C(O)C2CNC(=N)N2)NC(=O)C(Cc2ccc(OC3OC(CO)C(OC4OC5COC6(CCC(C(C)(C)C)CC6)OC5C(O)C4O)C(O)C3O)cc2)NC1=O (stereo not shown) [Example 208]"
class_name = "no (0)"

[[record]]
compound = "CC(c1ccccc1)C1NC(=O)CNC(=O)C(CO)NC(=O)C(C(O)C2CNC(=N)N2C2OC(CO)C(O)C(O)C2O)NC(=O)C(C(O)C2CNC(=N)N2)NC(=O)C(Cc2ccc(OC3OC(CO)C(OC4OC5COC(Cc6ccc(F)cc6)OC5C(O)C4O)C(O)C3O)cc2)NC1=O (stereo not shown) [Example 121]"
class_name = "yes (1)"


# strict comparison: is reported MIC Coagulase Negative Staphylococcus (GC 6257) < 2 µg/mL? input = CC(C)=CCCC(C)=CCCC(C)=CCOc1cccc(C2OCC3OC(OC4C(CO)OC(Oc5ccc(CC6NC(=O)C(C(C)c7ccccc7)NC(=O)CNC(=O)C(CO)NC(=O)C(C(O)C7CNC(=N)N7C7OC(CO)C(O)C(O)C7O)NC(=O)C(C(O)C7CNC(=N)N7)NC6=O)cc5)C(O)C4O)C(O)C(O)C3O2)c1 (stereo not shown) [Example 185]
no (0)
